Exercise: state measured Wheat plant response rating for each of the molecules provided.
test system: wheat; assay: Test A preemergence; assay type: in vivo, Triticum aestivum; conditions: 500 g ai/ha, 0 to 100 scale where 0 is no effect and 100 is complete control
Give bare numbers.

# count of solved cases: 3
In: Could you share which Wheat plant response rating value was measured for C=C(C)c1cccc(Oc2ncc(Cl)cn2)c1-n1cc(Br)cn1 ?
Out: 0

In: Could you share which Wheat plant response rating value was measured for N#Cc1cnn(-c2c(Oc3ncc(Cl)cn3)cccc2C(F)F)c1 ?
Out: 100

In: Could you share which Wheat plant response rating value was measured for FC(F)(F)c1cnn(-c2c(Cl)cccc2Oc2ncc(Cl)cn2)c1 ?
Out: 50

Below are some molecules; for each one, tell me its Wheat plant response rating.
1. CCOC(=O)c1cnn(-c2c(C#N)cccc2Oc2ncc(Cl)cn2)c1
2. FC(F)c1cccc(Oc2ncc(Br)cn2)c1-n1cc(I)cn1

Out:
0
10

Below are some molecules; for each one, tell me its Wheat plant response rating.
1. FC(F)c1cccc(Oc2ncc(Br)cn2)c1-n1cc(Br)cn1
2. N#Cc1cccc(Oc2ncc(Cl)cn2)c1-n1cc(I)cn1
3. N#Cc1cccc(Oc2ncc(Cl)cn2)c1-n1cc(Br)cn1
4. COc1cnc(Oc2cccc(C#N)c2-n2cc(Br)cn2)nc1

Out:
1: 20; 2: 60; 3: 0; 4: 0

Below are some molecules; for each one, tell me its Wheat plant response rating.
1. N#Cc1cccc(Oc2ncc(Cl)cn2)c1-n1cc([N+](=O)[O-])cn1
2. Fc1cccc(Oc2ncc(Cl)cn2)c1-n1cc(I)cn1

Out:
0
30
